- assay target: HCK (human)
- test: radiometric filter-binding kinase assay, Kinase HotSpot
- condition details: compound 0.5 µM; ATP 10 µM
# residual activity >= 90% gives t, anything below gives f

- compound: "Cc1ccc(NC(=O)c2ccc(CN3CCN(C)CC3)cc2)cc1Nc1nc(-c2cccnc2)cs1"
  category label: "f"
- compound: "Nc1nc(Nc2ccc(S(N)(=O)=O)cc2)nn1C(=O)c1c(F)cccc1F"
  category label: "f"
- compound: "O=c1cc(-c2cccc3c2Sc2ccccc2S3)oc(N2CCOCC2)c1"
  category label: "t"
- compound: "Oc1ccc(-c2nc(-c3ccc(F)cc3)c(-c3ccncc3)[nH]2)cc1"
  category label: "t"
- compound: "O=C1Nc2cc(Br)ccc2/C1=C1/Nc2ccccc2/C1=N\\O"
  category label: "f"
- compound: "Nc1nc(Nc2ccc(S(N)(=O)=O)cc2)nn1C(=S)Nc1c(F)cccc1F"
  category label: "f"
- compound: "CSc1nc(-c2ccc(F)cc2)c(-c2ccnc(NC(C)c3ccccc3)c2)[nH]1 (stereo not given)"
  category label: "f"
- compound: "O=C1Cc2c([nH]c3ccc([N+](=O)[O-])cc23)-c2ccccc2N1"
  category label: "f"
